Numbers sourced from patent US20260125375A1.

Study system: C-CBL (residues 46-435) (Homo sapiens)
Construct: Purified CBL-B (residues 36-427) and C-CBL (residues 46-435) proteins from baculovirus-infected insect cells; made in house; host or cells: baculovirus-infected insect cells
Sequence (P22681 46-435): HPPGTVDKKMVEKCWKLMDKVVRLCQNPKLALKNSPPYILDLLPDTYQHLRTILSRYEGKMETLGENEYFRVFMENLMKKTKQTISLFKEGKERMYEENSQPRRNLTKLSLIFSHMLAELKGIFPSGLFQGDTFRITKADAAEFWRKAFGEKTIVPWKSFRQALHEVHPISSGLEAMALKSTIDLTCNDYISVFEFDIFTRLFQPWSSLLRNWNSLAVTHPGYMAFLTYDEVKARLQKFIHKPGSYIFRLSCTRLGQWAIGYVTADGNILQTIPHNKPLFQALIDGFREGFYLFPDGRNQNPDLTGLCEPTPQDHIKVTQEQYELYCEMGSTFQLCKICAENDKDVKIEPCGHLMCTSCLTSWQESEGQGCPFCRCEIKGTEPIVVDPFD
Protocol text: Ligand Displacement Assay (LDA), HTRF competitive binding against BODIPY-labeled fluorescent tracer, C-CBL
Test settings: geometric mean of the number of tests, read-out: C-CBL Ki (nM) GMean
Readout type: Ki (nM)
Only the number, expressed in nM, is required.

# example entries with known answers
INSERT INTO results (molecule, readout_type, quantitative_result) VALUES
  ('Cn1cnnc1CC1(c2cccc(-c3n[nH]c4c(CN5CC[C@@H](F)C5)nc(C(F)(F)F)cc34)c2)COC1 [Example C71]', 'Ki', 124),
  ('Cn1cnnc1CC1(c2cccc(-c3n[nH]c4cc(F)c(F)cc34)c2)COC1 [Example B5]', 'Ki', 375),
  ('CC(NCC(C)(C)O)c1nc(C(F)(F)F)cc2c(-c3cccc([C@H](c4nncn4C)C4CCC4)c3)n[nH]c12 (single isomer, unassigned) [Example C45]', 'Ki', 22.1);

Give its Ki value. Item: Cn1cnnc1CC1(c2cccc(-c3n[nH]c4c(CN5CCNC(=O)C5)nc(C(F)(F)F)cc34)c2)COC1 [Example C55]
65.3

Give its Ki value. Item: C[C@H](Cc1nncn1C)c1cccc(-c2n[nH]c3cnc(C(F)(F)F)cc23)c1 [Example N1]
249

Give its Ki value. Item: Cn1cnnc1[C@@H](c1cccc(-c2n[nH]c3ncc(C(F)(F)F)cc23)c1)C1CCC1 [Example A5]
1060

Give its Ki value. Item: C[C@@H]1CCCN([C@H](C)c2nc(C(F)(F)F)cc3c(-c4cccc(C5(Cc6nncn6C)COC5)c4)n[nH]c23)C1 (single isomer, unassigned) [Example D14]
183
